Target: pooled human IgG
observable: Enzyme Activity Endpoint Assay (purified): Fc (ng/µL)
The figure you give is taken to be in ng/µL; do not add the unit.

INPUT: Data request, read-out Enzyme Activity Endpoint Assay (purified): Fc, for PRT-313 (protein) MQITSVWTKGVTPLTPEQFRENNEDVIHAPYLAHQGWYDITKAFDGKDNLLCGAATAGNMLHWWFDQNKTEIEAYLSKHPEKQKIIFGNQELFDLKAAIDTKDSQTNSQLFDYFRDKAFPNLSARQLGVMPDLVLDMFINGYYLNVGKTQSTDVNRPYQDKDKRGGIFDAVFTRGDQTTLLTARHDLKNKGLNDISTIIKQELTEGRALALSHTYANVSISHVINLWGADFNAEGELEAIYVTDSDANPSIGMKKYFVGRNAHGHVAISAKKIEGENIGAQVLGLFTLSSGKDIWQKLS
OUTPUT: 303
